tested on: Pseudomonas aeruginosa; assay: Agonist activity at Pseudomonas aeruginosa QSIS2 LasR-mediated quorum sensing co-expressing SacB1 assessed as luminescence at 0.1 mM after 24 hrs by reporter gene assay; type: functional
The source made the active and inactive calls. The calls are words filed in the database; no cut-off is given here.
measuredQuantity: Activity

Example cases with answers are listed next.
CCCCCc1cn(C2CCOC2=O)nn1 (stereo not given)
inactive
O=C1OCCC1n1cc(-c2ccccc2)nn1 (stereo not given)
inactive
CCCCCCCCCCCCc1cn(C2CCOC2=O)nn1 (stereo not given)
28.7%
CCCCCCCCCCc1cn(C2CCOC2=O)nn1 (stereo not given)
32.1%
O=C1OCCC1n1cc(CCc2ccccc2)nn1 (stereo not given)
39.1%

Shift focus to the following entry.
Per the record, CCCCCCCCc1cn(C2CCOC2=O)nn1 (stereo not given) has Activity of inactive

---

tested on: Escherichia coli; assay: Antibacterial activity against Escherichia coli JB523 after 20 hrs by broth microdilution assay; type: functional; conditions: JB523, 20 h
Listed here: items and their measured MIC.
Could you give me the number in mM? Just the number is fine.

// solved cases for MIC follow
O=C1OCCC1n1cc(CCc2ccccc2)nn1 (stereo not given)
10
O=C1OCCC1n1cc(Cc2ccccc2)nn1 (stereo not given)
5
CCCCCCCCCCCCc1cn(C2CCOC2=O)nn1 (stereo not given)
2.5
CCCCCCCc1cn(C2CCOC2=O)nn1 (stereo not given)
5
CCCCCCc1cn(C2CCOC2=O)nn1 (stereo not given)
5
CCCCc1cn(C2CCOC2=O)nn1 (stereo not given)
5
CCCCCCCCc1cn(C2CCOC2=O)nn1 (stereo not given)
5
CCCCCc1cn(C2CCOC2=O)nn1 (stereo not given)
5
CCCCCCCCCCc1cn(C2CCOC2=O)nn1 (stereo not given)
2.5

We now examine a further compound.
Lab entry: Escherichia coli assay, compound O=C1OCCC1n1cc(-c2ccccc2)nn1 (stereo not given) , MIC = 10

---

target: Transcriptional activator protein LuxR (Aliivibrio fischeri); assay: Antagonist activity at Vibrio fischeri LuxR-mediated quorum sensing expressed in Escherichia coli JB523 assessed as inhibition of C6-HSL-induced GFP expression after 24 hrs by reporter gene assay
Sequence (P12746 whole entry): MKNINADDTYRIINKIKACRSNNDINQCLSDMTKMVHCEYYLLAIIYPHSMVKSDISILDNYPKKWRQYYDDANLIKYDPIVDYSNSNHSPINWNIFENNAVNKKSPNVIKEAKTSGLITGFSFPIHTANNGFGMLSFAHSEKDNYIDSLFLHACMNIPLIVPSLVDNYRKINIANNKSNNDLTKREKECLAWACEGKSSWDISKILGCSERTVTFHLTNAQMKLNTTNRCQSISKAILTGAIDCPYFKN
measuredQuantity: IC50 (µM)
Quick note: give the figure in µM, leave out the unit.

In plain terms, CCCCCCCCc1cn(C2CCOC2=O)nn1 (stereo unspecified) has a documented IC50 of 308

---

Documented inhibition across a set of compounds
target: Transcriptional activator protein LuxR (Aliivibrio fischeri) (UniProt P12746); test: Antagonist activity at Vibrio fischeri LuxR-mediated quorum sensing expressed in Escherichia coli JB523 assessed as inhibition of C6-HSL-induced GFP expression at 0.1 mM after 24 hrs by reporter gene assay; format: functional
Sequence (P12746 whole entry): as above

CCCCCCc1cn(C2CCOC2=O)nn1 (stereo not drawn)
11.6%

Please find the next compound below.
Entry under test: O=C1OCCC1n1cc(Cc2ccccc2)nn1 (stereo not drawn) . Its inhibition was 6.3%

---

biological target: UniProtKB P12746; assay: Agonist activity at Vibrio fischeri LuxR-mediated quorum sensing expressed in Escherichia coli JB523 assessed as GFP expression at 0.5 mM after 24 hrs by reporter gene assay; type: functional
Calls of active or inactive are those of the source. The rule behind the calls is not given here.
measuredQuantity: Activity

Some entries whose results are on file:
O=C1OCCC1n1cc(-c2ccccc2)nn1 (stereo not given)
inactive
O=C1OCCC1n1cc(Cc2ccccc2)nn1 (stereo not given)
inactive
CCCCc1cn(C2CCOC2=O)nn1 (stereo not given)
11.6%
CCCCCCCc1cn(C2CCOC2=O)nn1 (stereo not given)
12.2%
CCCCCCCCCCCCc1cn(C2CCOC2=O)nn1 (stereo not given)
inactive

Item: O=C1OCCC1n1cc(CCc2ccccc2)nn1 (stereo not given) | Activity: inactive
